From: patent US12281225B2

# Test description: Physical stability; visual assessment (color, turbidity, phase separation)
# Assay type: physicochemical
# Parameters: key: ++: no discernible change with respect to color, turbidity or phase separation; +: marginal change in color number, somewhat increased Tyndall effect but no turbidity; 0: easily discernible increase in color number and moderate turbidity−no phase separation; −: turbidity and change in color number readily discernible by visual assessment; −−: strong color change with strong turbidity and incipient phase separation
# Condition set: Polymer P2 with stabilizer
# From the text: Physical stability; visual assessment according to: ++=no discernible change with respect to color, turbidity or phase separation; +=marginal change in color number, somewhat increased Tyndall effect but no turbidity; 0=easily discernible increase in color number and moderate turbidity−no phase separation; − turbidity and change in color number readily discernible by visual assessment; −− strong color change with strong turbidity and incipient phase separation. […]
Property label: Physical stability, 60 d 40° C.*

{"columns": ["Molecule", "Physical stability, 60 d 40° C.*"],
 "data": [
  ["O=c1[nH]sc2ccccc12", "−"],
  ["CCCCNC(=O)OCC#CI [Iodopropynyl butyl carbamate, iodopropynyl butyl carbamate]", "−"],
  ["CCCCCCCCCCCCCCCC[N+](C)(C)Cc1ccccc1.[Cl-] [Polymer 16-BAC, cetylalkonium chloride]", "+"],
  ["CCCCCCCCn1sc(Cl)c(Cl)c1=O", "−−"],
  ["Cn1sc(Cl)cc1=O", "−−"]
]}

Physical stability, 60 d 40° C.* in this record for `CCCCCCCCn1sccc1=O` : −−

So, CCCCCCCCCCCCCCCC[n+]1ccccc1 [CPC, cetylpyridinium chloride] ? Its Physical stability, 60 d 40° C.* was +

// field: Physical stability, 60 d 40° C.*; key: `Cn1sccc1=O` ; value = −

In plain terms, CCCCCCCCCC[N+](C)(C)CCCCCCCCCC.[Cl-] [DDAC, didecyldimethylammonium chloride] has a documented Physical stability, 60 d 40° C.* of ++

###

List of Iodine color number, 60 d 40° C. values.
# Test description: Iodine color number according to DIN 6162:2014-09
# Format: physicochemical
# Condition set: Polymer P9 with stabilizer; 60 d 40° C.

{"columns": ["Molecule", "Iodine color number, 60 d 40° C."],
 "data": [
  ["Cn1sc(Cl)cc1=O", 13.9],
  ["Cn1sccc1=O", 12.7],
  ["CCCCCCCCCCCCCCCC[N+](C)(C)Cc1ccccc1.[Cl-] [Polymer 16-BAC, cetylalkonium chloride]", 3.9]
]}

So, CCCCCCCCCC[N+](C)(C)CCCCCCCCCC.[Cl-] [DDAC, didecyldimethylammonium chloride] ? Its Iodine color number, 60 d 40° C. was 3.9

###

# Test description: Iodine color number according to DIN 6162:2014-09
# Type: physicochemical
# Condition set: Polymer P3 with stabilizer; start
Collected Iodine color number, start values appear next to each entry.

Here's what some known entries look like.
{"columns": ["Compound", "Iodine color number, start"],
 "data": [
  ["Cn1sc(Cl)cc1=O", 3.2],
  ["CCCCCCCCn1sccc1=O", 3.3],
  ["CCCCCCCCn1sc(Cl)c(Cl)c1=O", 3.4],
  ["CCCCCCCCCC[N+](C)(C)CCCCCCCCCC.[Cl-] [DDAC, didecyldimethylammonium chloride]", 3.3]
]}

Moving on to the next compound.
Iodine color number, start reading for `O=c1[nH]sc2ccccc12` : 3.4
